B1: CPEB3 Ribozyme (parent)
chain: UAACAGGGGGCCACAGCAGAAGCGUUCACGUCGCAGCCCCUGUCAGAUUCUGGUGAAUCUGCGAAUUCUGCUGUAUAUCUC

- Variants of: B1
- EXPERIMENT DESCRIPTION: self-cleavage, relative activity (ratio to wild type); higher = more cleavage; in vitro, sequencing
ENDPOINT NAME: self-cleavage
Number, no unit, nothing else.

UAACAGGGGGCCACAGCAGAAGCGUGCACGUCGCAGCCCCUGUCAGAUUCUGGUGAAUCUGCGAAUUCAGCUGUAUAUCUC [U26G U69A] :: 0.21
UAAAAGGGGGCCACAGCAGAAGCGUUCACGUCGCAGCCCCUGUCAGAUUCUGGUGAAUCUGCGAAUUCUGCUGUAUAUCUC [C4A] :: 1.22
UAACAGGGGGCCACAGCAGAAGCGUUCACGUCGCCGCCCCUGUCAGAUUCUGGUGAAUCUGCGAAUUCAGCUGUAUAUCUC [A35C U69A] :: 0.53
UAACAGGGGGCCACAGCAGAAGCGUUCACGUCGCAGCCCCUGUCAGACUCUGGUGAAUCUGCGAAUUCUGCUGUAUAUCUC [U48C] :: 0.65
UAACAGGGGGCCACAGCAGAAGCGUUCAUGUCGCAGCCCCUGUCAGAUUCUGGUGAAUCUGCGUAUUCUGCUGUAUAUCUC [C29U A64U] :: 0.25
UAACAGGGGGCCACAGCAGAAGCGUUCACGUCGCAGCCCCUGUCAGAUUCCGUUGAAUCUGCGAAUUCUGCUGUAUAUCUC [U51C G53U] :: 1.2

Return reported self-cleavage; argument: UAACAGGGGGCCACAGCAGGAGCGUUCACGUCGCGGCCCCUGUCAGAUUCUGGUGAAUCUGCGAAUUCUGCUGUAUAUCUC [A20G A35G]
1.25

Do the same for UAACAGGGGGCCACAGCAGAAGCGUUCACGUCGCAGCCCCUGACAGAUUCUGGUGAAUCCGCGAAUUCUGCUGUAUAUCUC [U43A U60C] please
0.54

Do the same for UAACAGGGGGCCACAGCAGAAGCGUUCACGUCGCAGCCCCUAGCAGAUUCUGGUGAAUCUGCGAAUUCUGCUGUAUAUCUC [G42A U43G] please
0.32

Do the same for UAACAGGGGGCCACAGCAGAAGCGUUCGCGUCGCAGCCCCUGUCAGAUUCUGGUGAAUCUGCGAAGUCUGCUGUAUAUCUC [A28G U66G] please
0.2

Every entry's value here was drawn from the RNAGym collection of RNA variant scans (doi:10.1093/nar/gkz1192).
